- assay.system: Adenosine receptor A1 (Homo sapiens)
- Sequence (P30542 whole entry): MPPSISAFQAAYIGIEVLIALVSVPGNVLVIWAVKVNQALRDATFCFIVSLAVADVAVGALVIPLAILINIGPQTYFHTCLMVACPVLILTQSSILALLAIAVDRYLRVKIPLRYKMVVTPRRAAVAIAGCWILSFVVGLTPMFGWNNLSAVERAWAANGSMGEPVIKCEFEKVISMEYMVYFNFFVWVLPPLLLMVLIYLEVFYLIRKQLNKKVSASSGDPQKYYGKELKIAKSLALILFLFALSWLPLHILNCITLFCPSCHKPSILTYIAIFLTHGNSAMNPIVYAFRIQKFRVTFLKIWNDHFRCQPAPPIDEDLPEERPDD
- procedure.summary: Displacement of [3H]DPCPX from recombinant human A1 receptor expressed in CHO cell membranes
pKi: −log10 of the molar value.
assay.readout: pKi

Check out these entries, answers already filled in.
In [3]: df
Out[3]:
                            smiles_notation  test_result
0  Clc1ccc(C#Cc2nc(NC3CCCC3)c3nc[nH]c3n2)s1         5.95
1  Clc1ccc(C#Cc2nc(N[C@@H]3CCOC3)c3nc[nH]c3n2)s1         6.16

A = OC[C@H]1O[C@@H](n2cnc3c(N[C@H]4C[C@H]5CC[C@@H]4C5)ncnc32)[C@H](O)[C@@H]1O
B = CC#Cc1nc(NC(C2CC2)C2CC2)c2nc[nH]c2n1
C = Clc1ccc(C#Cc2nc(N[C@H]3C[C@H]4CC[C@@H]3C4)c3nc[nH]c3n2)s1
Please list these in order of increasing pKi. Thank you! Could you list the labels in the order requested?
B, C, A

###

- assay.system: Histamine H2 receptor (Homo sapiens)
- Sequence (P25021 whole entry): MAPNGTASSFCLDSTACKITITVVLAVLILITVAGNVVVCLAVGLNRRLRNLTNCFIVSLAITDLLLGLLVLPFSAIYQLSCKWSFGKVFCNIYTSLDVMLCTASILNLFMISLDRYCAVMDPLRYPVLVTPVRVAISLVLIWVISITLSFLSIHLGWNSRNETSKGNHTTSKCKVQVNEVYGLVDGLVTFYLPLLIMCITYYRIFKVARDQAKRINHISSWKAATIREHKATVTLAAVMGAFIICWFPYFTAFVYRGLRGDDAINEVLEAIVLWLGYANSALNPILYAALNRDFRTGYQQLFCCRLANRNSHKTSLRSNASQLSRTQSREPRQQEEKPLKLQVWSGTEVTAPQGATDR
assay.readout: Ki (nM)
// return numeric value only (unit: nM, not printed)

Which Ki value is on record for "Clc1ccc(C#Cc2nc(NCCc3ccccc3)c3nc[nH]c3n2)s1" ?
520

###

- assay.system: Adenosine receptor A2a (Homo sapiens, UniProt P29274)
- Sequence (P29274 whole entry): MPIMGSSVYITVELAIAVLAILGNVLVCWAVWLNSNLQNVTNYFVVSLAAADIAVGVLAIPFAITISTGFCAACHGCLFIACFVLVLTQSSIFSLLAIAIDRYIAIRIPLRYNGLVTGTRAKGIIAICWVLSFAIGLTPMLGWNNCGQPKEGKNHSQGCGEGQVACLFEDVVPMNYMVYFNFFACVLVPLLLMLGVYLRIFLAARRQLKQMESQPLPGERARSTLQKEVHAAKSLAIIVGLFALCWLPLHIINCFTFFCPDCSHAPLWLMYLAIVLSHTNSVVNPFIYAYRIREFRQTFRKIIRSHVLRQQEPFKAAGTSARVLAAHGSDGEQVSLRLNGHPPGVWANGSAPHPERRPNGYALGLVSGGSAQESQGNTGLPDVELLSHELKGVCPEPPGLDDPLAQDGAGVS
- procedure.summary: Displacement of [3H]ZM241385 from human A2A receptor expressed in HEK293 cell membranes at 10 uM
- protocol.conditions: HEK293 cell membranes expressing human A2A receptor, probe [3H]ZM241385
assay.readout: inhibition at 10 µM (%)

Answered cases to consult:
                            smiles_notation        assay_readout  test_result
0  Clc1ccc(C#Cc2nc(NCCc3ccccc3)c3nc[nH]c3n2)s1  inhibition at 10 µM           21
1  Clc1ccc(C#Cc2nc(N[C@H]3C[C@H]4CC[C@@H]3C4)c3nc[nH]c3n2)s1  inhibition at 10 µM           37
2       CCNc1nc(C#Cc2ccc(Cl)s2)nc2[nH]cnc12  inhibition at 10 µM           18
3  COc1cc(CCNc2nc(C#Cc3ccc(Cl)s3)nc3[nH]cnc23)ccc1O  inhibition at 10 µM           -3
4      CCCNc1nc(C#Cc2ccc(Cl)s2)nc2[nH]cnc12  inhibition at 10 µM           25
5  Oc1ccc(CCNc2nc(C#Cc3ccc(Cl)s3)nc3[nH]cnc23)cc1O  inhibition at 10 µM            5
6  Cn1cnc2c(NCCc3ccccc3)nc(C#Cc3ccc(Cl)s3)nc21  inhibition at 10 µM           32
7  C[C@@]12C[C@@H]1[C@@H](n1cnc3c(NCCc4ccccc4)nc(C#Cc4ccccc4)nc31)[C@H](O)[C@@H]2O  inhibition at 10 µM           22

1 = Clc1ccc(C#Cc2nc(NC(C3CC3)C3CC3)c3nc[nH]c3n2)s1
2 = O=S(=O)(O)c1ccc(C#Cc2nc(NC(C3CC3)C3CC3)c3nc[nH]c3n2)cc1
3 = Clc1cccc(CNc2nc(C#Cc3ccc(Cl)s3)nc3[nH]cnc23)c1
Thanks in advance: please rank these 3 entries by inhibition at 10 µM, highest to lowest. Please write the labels in the order that was asked for.
2, 1, 3
(2: 21%, 1: 6%, 3: 1%)

###

- assay.system: Sigma intracellular receptor 2 (Rattus norvegicus, UniProt Q5U3Y7)
- Sequence (Q5U3Y7 whole entry): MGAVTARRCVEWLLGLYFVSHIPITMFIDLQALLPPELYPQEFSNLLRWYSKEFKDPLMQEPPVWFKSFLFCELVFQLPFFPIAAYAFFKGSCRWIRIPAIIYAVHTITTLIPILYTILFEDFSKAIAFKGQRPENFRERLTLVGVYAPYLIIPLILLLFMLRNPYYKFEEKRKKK
- procedure.summary: Displacement of [3H]-DTG from sigma 2 receptor in rat PC12 cells by radioligand binding assay
assay.readout: Ki (µM)

A = COc1cc(CCNc2nc(C#Cc3ccc(Cl)s3)nc3[nH]cnc23)ccc1O
B = CCCNc1nc(C#Cc2ccc(Cl)s2)nc2[nH]cnc12
C = Clc1cccc(CNc2nc(C#Cc3ccc(Cl)s3)nc3[nH]cnc23)c1
From the records above, write out the order of decreasing Ki. Please reply with the labels ordered as requested. Many thanks.
B, C, A

###

- assay.system: 5-hydroxytryptamine receptor 2C (Homo sapiens)
- Sequence (P28335 whole entry): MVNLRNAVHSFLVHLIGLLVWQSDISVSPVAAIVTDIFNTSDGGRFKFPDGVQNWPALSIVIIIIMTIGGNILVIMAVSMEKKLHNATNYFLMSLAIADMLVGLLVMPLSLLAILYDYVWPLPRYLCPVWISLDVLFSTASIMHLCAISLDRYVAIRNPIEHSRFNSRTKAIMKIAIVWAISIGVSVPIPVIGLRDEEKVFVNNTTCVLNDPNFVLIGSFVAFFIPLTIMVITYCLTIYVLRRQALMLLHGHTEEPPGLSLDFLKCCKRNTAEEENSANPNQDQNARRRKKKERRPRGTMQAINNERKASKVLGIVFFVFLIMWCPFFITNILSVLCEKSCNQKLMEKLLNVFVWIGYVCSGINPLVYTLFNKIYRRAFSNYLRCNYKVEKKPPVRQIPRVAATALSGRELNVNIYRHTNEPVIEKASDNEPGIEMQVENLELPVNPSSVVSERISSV
assay.readout: pKi
Hey, just a heads up that pKi is the negative log base 10 of the concentration in molar.

Please look up its pKi: "O[C@H]1CCC[C@@H]1Nc1nc(C#Cc2ccc(Cl)s2)nc2[nH]cnc12"
5.96

###

- assay.system: Adenosine receptor A2a (Mus musculus, UniProt Q60613)
- Sequence (Q60613 whole entry): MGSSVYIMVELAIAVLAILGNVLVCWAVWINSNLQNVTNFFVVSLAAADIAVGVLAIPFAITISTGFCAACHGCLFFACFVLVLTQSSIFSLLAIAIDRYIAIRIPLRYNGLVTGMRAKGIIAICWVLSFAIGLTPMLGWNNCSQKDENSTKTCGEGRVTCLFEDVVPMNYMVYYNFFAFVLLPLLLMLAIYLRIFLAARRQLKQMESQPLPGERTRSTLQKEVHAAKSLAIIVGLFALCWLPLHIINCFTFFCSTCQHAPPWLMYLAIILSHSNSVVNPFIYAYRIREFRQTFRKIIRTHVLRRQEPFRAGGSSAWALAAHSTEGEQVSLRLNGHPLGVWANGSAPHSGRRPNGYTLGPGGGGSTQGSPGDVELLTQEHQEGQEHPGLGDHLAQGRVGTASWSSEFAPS
- procedure.summary: Displacement of [3H]ZM241385 from mouse A2A receptor at 10 uM
- protocol.conditions: probe [3H]ZM241385
assay.readout: inhibition at 10 µM (%)
Record the value in %, omitting the unit from your answer.

Fill blank: measured inhibition at 10 µM of the compound "C[C@@]12C[C@@H]1[C@@H](n1cnc3c(NCCc4ccccc4)nc(C#Cc4ccccc4)nc31)[C@H](O)[C@@H]2O" is ____.
13

###

- assay.system: UniProt P0DMS8
- Sequence (P0DMS8 whole entry): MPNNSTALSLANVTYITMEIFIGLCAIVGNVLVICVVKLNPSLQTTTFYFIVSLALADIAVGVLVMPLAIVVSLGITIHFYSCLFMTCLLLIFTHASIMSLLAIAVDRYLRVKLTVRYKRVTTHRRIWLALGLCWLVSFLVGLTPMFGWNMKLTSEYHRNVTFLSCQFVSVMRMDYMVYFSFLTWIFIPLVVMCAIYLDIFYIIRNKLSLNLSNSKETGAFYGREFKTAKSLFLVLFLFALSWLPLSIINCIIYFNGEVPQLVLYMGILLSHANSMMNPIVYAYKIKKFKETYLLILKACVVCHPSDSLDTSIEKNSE
- procedure.summary: Displacement of [125I]I-AB-MECA from recombinant human adenosine A3 receptor expressed in CHO cell membranes
assay.readout: Ki (nM)

P = Clc1cccc(CNc2nc(C#Cc3ccc(Cl)s3)nc3[nH]cnc23)c1
Q = CC#Cc1nc(NC(C2CC2)C2CC2)c2nc[nH]c2n1
R = Clc1ccc(C#Cc2nc(NC3CCCC3)c3nc[nH]c3n2)s1
# descending Ki order for the listed compounds # the answer lists labels in the order requested
P, Q, R
(P: 128 nM, Q: 43.2 nM, R: 17.4 nM)

Provenance of the data: ChEMBL document CHEMBL4368860
